system: MHCC97H cells; assay: IC50 values by cell proliferation assay (WST-1); assay type: cell-based, human; details: Homo sapiens, MHCC97H; individual inhibitor, 72 hours, WST-1; read-out: MHCC97H IC50
Entries annotated with measured IC50
metricName: IC50 (µM)

1. COc1cc2nccc(Oc3ccc(NC(=O)NC4CC4)c(Cl)c3)c2cc1C(N)=O = 0.28
2. CC(=O)c1c(C)c2cnc(Nc3ccc(N4CCNCC4)cn3)nc2n(C2CCCC2)c1=O = 14.5
3. CNC(=O)c1cc(Oc2ccc(NC(=O)Nc3ccc(Cl)c(C(F)(F)F)c3)c(F)c2)ccn1 = 4.7
4. CNC(=O)c1cc(Oc2ccc(NC(=O)Nc3ccc(Cl)c(C(F)(F)F)c3)cc2)ccn1 = 12

====

tested on: MHCC97H cells; experiment: IC50 values by cell proliferation assay (WST-1); type: cell-based, human; conditions: Homo sapiens, 72 h; MHCC97H cells, inhibitor alone (synergy studies); read-out: IC50 (μM) OF KINASE INHIBITORS
metricName: IC50 (µM)

1. CC(=O)c1c(C)c2cnc(Nc3ccc(N4CCNCC4)cn3)nc2n(C2CCCC2)c1=O = 14.5

====

tested on: MHCC97L cells; assay: IC50 values by cell proliferation assay (WST-1); assay type: cell-based; conditions: Homo sapiens, individual inhibitor, 72 hours
Entries annotated with measured IC50
metricName: IC50 (µM)

1) CNC(=O)c1cc(Oc2ccc(NC(=O)Nc3ccc(Cl)c(C(F)(F)F)c3)cc2)ccn1 = 8.8
2) CNC(=O)c1cc(Oc2ccc(NC(=O)Nc3ccc(Cl)c(C(F)(F)F)c3)c(F)c2)ccn1 = 3.5
3) CNC(=O)c1nn(C)c2c1C(C)(C)Cc1cnc(Nc3ccc(N4CCN(C)CC4)cc3)nc1-2 = 1
4) CCN(CC)CCNC(=O)c1c(C)[nH]c(/C=C2\C(=O)Nc3ccc(F)cc32)c1C = 8.2
5) COc1cc2nccc(Oc3ccc(NC(=O)NC4CC4)c(Cl)c3)c2cc1C(N)=O = 0.14
6) CC(=O)c1c(C)c2cnc(Nc3ccc(N4CCNCC4)cn3)nc2n(C2CCCC2)c1=O = 8.2

====

system: MHCC97H cells; experiment: IC50 values by cell proliferation assay (WST-1); assay type: cell-based, human; conditions: Homo sapiens, MHCC97H, MHCC97H cells, inhibitor alone (synergy studies); read-out: IC50 (μM) OF KINASE INHIBITORS
metricName: IC50 (µM)

1. CNC(=O)c1cc(Oc2ccc(NC(=O)Nc3ccc(Cl)c(C(F)(F)F)c3)cc2)ccn1 [SORAFENIB, sorafenib] = 12
